experimental.protocol: clinical
measurement.context: human, in vivo, po, 30 mg/m2
readout.kind: half-life at 672 h (min)
Expressed in min, but write only the number.

Query half-life at 672 h for CC1=C(/C=C/C(C)=C/C=C/C(C)=C/C(=O)O)C(C)(C)CCC1 [TRETINOIN]
45

---

Below are pIC50 values recorded for Peptidyl-prolyl cis-trans isomerase FKBP1A (Homo sapiens, UniProt P62942).
pIC50 here is simply -log10 of the concentration when that concentration is written in mol/L.

- compound: "CCC12CC3CC(C1)C(NC(=O)CN1C(=O)CC(C[C@@H](O)C4C[C@@H](C)C[C@H](C)C4=O)CC1=O)C(C3)C2 (some centres undefined)"
  reported.value: 6.72
- compound: "C[C@@H]1CC([C@H](O)CC2CC(=O)N(CC(=O)NC3C4CC5(C)CC(O)(C4)CC3(C)C5)C(=O)C2)C(=O)[C@@H](C)C1 (some centres undefined)"
  reported.value: 6.66
- compound: "C[C@@H]1CC([C@H](O)CC2CC(=O)N(CC(=O)NC3C4CC5CC3CC(O)(C5)C4)C(=O)C2)C(=O)[C@@H](C)C1 (some centres undefined)"
  reported.value: 5.92

# context switch: different compound, same pIC50
Provide pIC50, system Peptidyl-prolyl cis-trans isomerase FKBP1A (Homo sapiens, UniProt P62942), entry C[C@@H]1CC([C@H](O)CC2CC(=O)N(CC(=O)NC3C4CC5(C)CC3CC(C)(C4)C5)C(=O)C2)C(=O)[C@@H](C)C1 (some centres undefined)
6.74
